Where do the numbers come from? From patent US20240366624A1.

Assay: H2O2 (antioxidant) activity assay
Assay type: biochemical
Settings: 100 μM
Label scheme for H2O2 inhibition at 100 μM (%): lower than 5% is no (0), 5% and above is yes (1).

Examples from the recorded data:
Request: Please tell me: is the compound CCCn1c2ccccc2c2nnc(SCC(=O)N3c4ccccc4Sc4ccccc43)nc21 at or over 5% in terms of H2O2 inhibition at 100 μM (%)?
Result: no (0)

Request: Please tell me: is the compound O=C(CSc1nc(O)cc(O)n1)N1c2ccccc2Sc2ccccc21 at or over 5% in terms of H2O2 inhibition at 100 μM (%)?
Result: yes (1)

Request: Please tell me: is the compound O=C(COc1ccc(O)cc1)N1c2ccccc2Sc2ccccc21 at or over 5% in terms of H2O2 inhibition at 100 μM (%)?
Result: yes (1)

Request: Please tell me: is the compound N#Cc1cc(SCC(=O)N2c3ccccc3Sc3ccccc32)nc2c1CCCC2 at or over 5% in terms of H2O2 inhibition at 100 μM (%)?
Result: no (0)

Request: Please tell me: is the compound CCCc1cc(O)nc(SCC(=O)N2c3ccccc3Sc3ccccc32)n1 at or over 5% in terms of H2O2 inhibition at 100 μM (%)?
Result: yes (1)

Request: Please tell me: is the compound O=C(CSc1nc(O)c2nc[nH]c2n1)N1c2ccccc2Sc2ccccc21 at or over 5% in terms of H2O2 inhibition at 100 μM (%)?
Result: no (0)

Request: Please tell me: is the compound O=C(COc1ccccc1)N1c2ccccc2Sc2ccccc21 at or over 5% in terms of H2O2 inhibition at 100 μM (%)?
Result: no (0)

Request: Please tell me: is the compound CCCn1c(SCC(=O)N2c3ccccc3Sc3ccccc32)nc2ccccc21 at or over 5% in terms of H2O2 inhibition at 100 μM (%)?
Result: no (0)

New cases:
Request: Please tell me: is the compound O=C(COc1nc2ccccc2s1)n1c2ccccc2c2ccccc21 at or over 5% in terms of H2O2 inhibition at 100 μM (%)?
Result: no (0)

Request: Please tell me: is the compound COc1ccc2nc(SCC(=O)n3c4ccccc4c4ccccc43)nc(C)c2c1 at or over 5% in terms of H2O2 inhibition at 100 μM (%)?
Result: no (0)
